Assay: modulators of brain endothelial barrier permeability, primary screen, cell-based, FITC-avidin fluorescence, HTS (AID 1963498); further: test concentration not given here
Details: actives lie on both sides
Entry flag: 1.0 if fold change permeability reaches 0.9; 0.0 if it does not.

Problem: Hi team, for O=C(O)Cc1cnc[nH]1 , is the recorded fold change permeability at or above 0.9?
Solution: 1.0

Problem: Hi team, for CNCC(O)c1ccc(O)cc1 (configuration not stated) , is the recorded fold change permeability at or above 0.9?
Solution: 0.0

Problem: Hi team, for CC(C)[C@H]1CN[C@H](C(=O)O)[C@H]1CC(=O)O , is the recorded fold change permeability at or above 0.9?
Solution: 1.0

Problem: Hi team, for NNC(=O)c1ccc(O)cc1 , is the recorded fold change permeability at or above 0.9?
Solution: 0.0
